assay: Cytotoxicity against human HLF cells after 74 hrs by MTT assay; assay type: cell-based; conditions: HLF cells
Each record here notes measured GI50 at 74 h.

COC1=C(OC)C(=O)C(CCCCCCCCCN2CCN(CCCCCCCCCC3=C(C)C(=O)C(OC)=C(OC)C3=O)CC2)=C(C)C1=O : > 10 µM

Would you mind telling me what GI50 at 74 h value was observed for C[C@H]1C=C(CCCCCCCC(O)CN2CCN(CC(O)CCCCCCCC3=C[C@H](C)OC3=O)CC2)C(=O)O1 (mixture of isomers) ? > 10 µM

Given the entry `CCCCCCCCCC[C@H](O)COCCOC[C@@H](O)CCCCCCCCCCCCC1=C[C@H](C)OC1=O` , report its measured GI50 at 74 h. > 10 µM

Given C[C@H]1C=C(CCCCCCCC(O)CN(C)CCN(C)CC(O)CCCCCCCC2=C[C@H](C)OC2=O)C(=O)O1 (mixture of isomers) , state its recorded GI50 at 74 h. > 10 µM

GI50 at 74 h lookup needed for C[C@H]1C=C(CCCCCCCC(O)CN(C)CCCN(C)CC(O)CCCCCCCC2=C[C@H](C)OC2=O)C(=O)O1 (mixture of isomers) , thanks. 4.42 µM

====

Quick reference for GI50 among some compounds
system: HCT-116; assay: Cytotoxicity against human HCT116 cells after 74 hrs by MTT assay; format: functional; conditions: HCT-116, 74 h
Give the number; µM is assumed, so skip it.

# query: GI50 | item `CCCCCCCCCC[C@H](O)COCCOC[C@@H](O)CCCCCCCCCCCCC1=C[C@H](C)OC1=O` | system: HCT-116 0.11

Checklist item: GI50 tested on HCT-116, entry C[C@H]1C=C(CCCCCCCC(O)CN2CCN(CC(O)CCCCCCCC3=C[C@H](C)OC3=O)CC2)C(=O)O1 (mixture of isomers) , value? 3.72

Short answer please: GI50, HCT-116, entry `COC1=C(OC)C(=O)C(CCCCCCCCCN2CCN(CCCCCCCCCC3=C(C)C(=O)C(OC)=C(OC)C3=O)CC2)=C(C)C1=O` 0.5

Give HCT-116 GI50 for C[C@H]1C=C(CCCCCCCC(O)CNc2ccc(NCC(O)CCCCCCCC3=C[C@H](C)OC3=O)cc2)C(=O)O1 (mixture of isomers) 2.49

====

experiment: Cytotoxicity against human BEAS2B cells after 74 hrs by MTT assay; assay type: cell-based, BEAS-2B; conditions: BEAS2B cells
The reader will find reported GI50 at 74 h values listed item by item below.

C[C@H]1C=C(CCCCCCCC(O)CN(C)CCCN(C)CC(O)CCCCCCCC2=C[C@H](C)OC2=O)C(=O)O1 (mixture of isomers) : 10.6 µM
C[C@H]1C=C(CCCCCCCC(O)CN(C)CCN(C)CC(O)CCCCCCCC2=C[C@H](C)OC2=O)C(=O)O1 (mixture of isomers) : > 10 µM
CCCCCCCCCC[C@H](O)COCCOC[C@@H](O)CCCCCCCCCCCCC1=C[C@H](C)OC1=O : > 10 µM

Please give the measured GI50 at 74 h for this molecule: `COC1=C(OC)C(=O)C(CCCCCCCCCN2CCN(CCCCCCCCCC3=C(C)C(=O)C(OC)=C(OC)C3=O)CC2)=C(C)C1=O` > 10 µM

====

test system: MCF7; assay: Cytotoxicity against human MCF7 cells after 74 hrs by MTT assay; type: functional; conditions: MCF7, 74 h
parameter: GI50 (µM)
Answer with a number only, understood to be in µM.

Example entries begin here.
COC1=C(OC)C(=O)C(CCCCCCCCCN2CCN(CCCCCCCCCC3=C(C)C(=O)C(OC)=C(OC)C3=O)CC2)=C(C)C1=O : 0.4
C[C@H]1C=C(CCCCCCCC(O)CNc2ccc(NCC(O)CCCCCCCC3=C[C@H](C)OC3=O)cc2)C(=O)O1 (mixture of isomers) : 7.37
C[C@H]1C=C(CCCCCCCC(O)CN(C)CCCN(C)CC(O)CCCCCCCC2=C[C@H](C)OC2=O)C(=O)O1 (mixture of isomers) : 2.38
C[C@H]1C=C(CCCCCCCC(O)CN2CCN(CC(O)CCCCCCCC3=C[C@H](C)OC3=O)CC2)C(=O)O1 (mixture of isomers) : 2.19
C[C@H]1C=C(CCCCCCCC(O)CN(C)CCN(C)CC(O)CCCCCCCC2=C[C@H](C)OC2=O)C(=O)O1 (mixture of isomers) : 3.16

Would you kindly look at the next entry?
# get_value(readout='GI50', item= `CCCCCCCCCC[C@H](O)COCCOC[C@@H](O)CCCCCCCCCCCCC1=C[C@H](C)OC1=O` ) 0.26

====

tested on: SGC-7901; test: Cytotoxicity against human SGC7901 cells after 74 hrs by MTT assay; assay type: functional; details: SGC-7901, 74 h
Label yes when GI50 < 2000 nM; otherwise no.

Does the reported GI50 of C[C@H]1C=C(CCCCCCCC(O)CN2CCN(CC(O)CCCCCCCC3=C[C@H](C)OC3=O)CC2)C(=O)O1 (mixture of isomers) stay below 2000 nM? yes

Item C[C@H]1C=C(CCCCCCCC(O)CN(C)CCCN(C)CC(O)CCCCCCCC2=C[C@H](C)OC2=O)C(=O)O1 (mixture of isomers) : GI50 beneath 2000 nM, strictly? no

====

tested on: SGC-7901; test: Cytotoxicity against human SGC7901 cells after 74 hrs by MTT assay; format: functional; conditions: SGC-7901, 74 h
parameter: GI50
Hey, just the number and the unit after it is fine.

Reference set, count: 3
C[C@H]1C=C(CCCCCCCC(O)CNc2ccc(NCC(O)CCCCCCCC3=C[C@H](C)OC3=O)cc2)C(=O)O1 (mixture of isomers) : 4.4 µM
COC1=C(OC)C(=O)C(CCCCCCCCCN2CCN(CCCCCCCCCC3=C(C)C(=O)C(OC)=C(OC)C3=O)CC2)=C(C)C1=O : 0.49 µM
CCCCCCCCCC[C@H](O)COCCOC[C@@H](O)CCCCCCCCCCCCC1=C[C@H](C)OC1=O : 0.06 µM

We now examine a further molecule.
What measured GI50 goes with C[C@H]1C=C(CCCCCCCC(O)CN(C)CCN(C)CC(O)CCCCCCCC2=C[C@H](C)OC2=O)C(=O)O1 (mixture of isomers) ? 6.22 µM
